biological target: human CD33 E333A (human, UniProt P20138 18-364); test: flow cytometry, alanine scan
Sequence (P20138 18-364 E333A limits assumed): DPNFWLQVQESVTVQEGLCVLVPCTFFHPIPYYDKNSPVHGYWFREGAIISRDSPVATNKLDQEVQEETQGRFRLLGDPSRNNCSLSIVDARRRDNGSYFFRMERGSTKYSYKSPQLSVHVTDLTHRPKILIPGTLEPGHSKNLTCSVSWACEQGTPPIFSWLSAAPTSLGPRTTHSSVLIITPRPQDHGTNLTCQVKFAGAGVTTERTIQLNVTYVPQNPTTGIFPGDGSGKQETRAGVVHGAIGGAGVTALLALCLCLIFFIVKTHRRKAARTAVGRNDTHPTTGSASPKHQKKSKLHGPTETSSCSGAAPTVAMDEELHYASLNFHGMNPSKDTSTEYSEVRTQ
MEASUREMENT_LABEL: Mean % WT Binding

Refmab #4 (antibody, V domains shown, The alanine scan used IgG or Fab) VH: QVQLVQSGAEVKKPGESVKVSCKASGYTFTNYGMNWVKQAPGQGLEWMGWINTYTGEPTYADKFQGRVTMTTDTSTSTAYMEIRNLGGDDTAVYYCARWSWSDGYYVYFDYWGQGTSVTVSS VL: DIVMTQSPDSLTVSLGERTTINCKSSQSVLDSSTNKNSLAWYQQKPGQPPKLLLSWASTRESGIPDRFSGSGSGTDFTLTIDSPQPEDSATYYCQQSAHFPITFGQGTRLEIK; 104 % of WT
Refmab #2 (antibody, V domains shown, The alanine scan used IgG or Fab) VH: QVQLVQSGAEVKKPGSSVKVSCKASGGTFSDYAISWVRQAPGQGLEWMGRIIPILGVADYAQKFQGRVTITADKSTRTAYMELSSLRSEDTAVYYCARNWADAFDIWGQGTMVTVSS VL: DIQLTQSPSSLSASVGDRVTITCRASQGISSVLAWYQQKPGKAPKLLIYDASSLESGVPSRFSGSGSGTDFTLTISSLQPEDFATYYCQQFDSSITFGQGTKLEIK; 108 % of WT
Refmab #1 (antibody, V domains shown, The alanine scan used IgG or Fab; also called hP67.6) VH: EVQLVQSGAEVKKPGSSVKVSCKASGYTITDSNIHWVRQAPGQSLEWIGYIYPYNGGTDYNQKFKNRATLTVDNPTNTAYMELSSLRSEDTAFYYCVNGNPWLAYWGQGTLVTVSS VL: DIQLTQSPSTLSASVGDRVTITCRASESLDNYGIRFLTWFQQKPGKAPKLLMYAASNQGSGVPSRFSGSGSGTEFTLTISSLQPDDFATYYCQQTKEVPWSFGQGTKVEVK; 77.9 % of WT

Query: Determine from records and report Mean % WT Binding for Refmab #3 (antibody, V domains shown, The alanine scan used IgG or Fab) VH: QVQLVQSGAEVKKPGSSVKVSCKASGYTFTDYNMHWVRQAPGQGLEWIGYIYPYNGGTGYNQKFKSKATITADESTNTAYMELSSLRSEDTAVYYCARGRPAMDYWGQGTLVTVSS VL: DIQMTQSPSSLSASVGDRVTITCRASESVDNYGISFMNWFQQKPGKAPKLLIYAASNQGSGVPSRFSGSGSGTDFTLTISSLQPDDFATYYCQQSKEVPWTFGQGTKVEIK
Reply: 104 % of WT
